Where do these numbers come from? They come from the supplement of paper PMC13207355.

system: E13 (patient-derived glioblastoma stem cells of classical subtype); assay: phenotypic distance (Euclidean, principal components) from DMSO controls (arbitrary units); higher = stronger morphological change; conditions: 1000 nM; exposure time: 72 h;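 also: cell Painting imaging in 384-well plates, CellProfiler features reduced to at least 20 principal components, Euclidean distance versus same-plate DMSO vehicle wells (0.1% v/v), median over six images per well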
Counter-ions that a name gives are not always drawn.
I'd appreciate it if you could supply phenotypic distance values for the items below.
One number for each entry.

Example entries begin here.
>  <Compound>
CN1C(=O)OC(C)(C)C1=O

>  <phenotypic distance>
0.395

$$$$
>  <Compound>
Nc1ccn([C@H]2CC[C@@H](CO)O2)c(=O)n1

>  <phenotypic distance>
0.498

$$$$
>  <Compound>
CCC[C@@H]1C[C@@H](C(=O)N[C@@H]([C@H]2O[C@H](SC)[C@H](O)[C@@H](O)[C@H]2O)[C@@H](C)O)N(C)C1 [Lincomycin hydrochloride]

>  <phenotypic distance>
0.768

$$$$

Could you tell me phenotypic distance for each of these compounds? They are listed below.
1. CC1=C(/C=C/C(C)=C/C=C/C(C)=C/C(=O)Nc2ccc(O)cc2)C(C)(C)CCC1 [Retinoic acid p-hydroxyanilide]
2. COc1cc2ncnc(Nc3cccc(Br)c3)c2cc1OC
3. CC(C)NCC(O)c1ccc(O)c(O)c1 (centres undefined) [Isoproterenol hydrochloride]

OUTPUT:
[4.24, 1.72, 0.656]

Could you tell me phenotypic distance for each of these compounds? They are listed below.
1. COc1cc2c(cc1O)CC[C@@H]1[C@@H]2CC[C@]2(C)[C@@H](O)CC[C@@H]12
2. C[C@@H](O[C@H]1OCCN(Cc2n[nH]c(=O)[nH]2)[C@H]1c1ccc(F)cc1)c1cc(C(F)(F)F)cc(C(F)(F)F)c1 [Aprepitant]
3. CC(C)C(=O)OCC(=O)[C@@]12O[C@H](C3CCCCC3)O[C@@H]1C[C@H]1[C@@H]3CCC4=CC(=O)C=C[C@]4(C)[C@H]3[C@@H](O)C[C@@]12C [Ciclesonide]
4. CC[C@@]1(O)C(=O)OCc2c1cc1n(c2=O)Cc2cc3c(CN(C)C)c(O)ccc3nc2-1
5. CC[C@H]1CN2CCc3cc(OC)c(OC)cc3[C@@H]2C[C@@H]1C[C@H]1NCCc2cc(OC)c(OC)cc21 [Emetine dihydrochloride hydrate]
6. CC(C)NCC(O)COc1cccc2ccccc12 (centres undefined) [Propranolol hydrochloride]
7. C[C@H]1O[C@@H](O[C@H]2[C@@H](O)C[C@H](O[C@H]3[C@@H](O)C[C@H](O[C@H]4CC[C@@]5(C)[C@H](CC[C@@H]6[C@@H]5C[C@@H](O)[C@]5(C)[C@@H](C7=CC(=O)OC7)CC[C@]65O)C4)O[C@@H]3C)O[C@@H]2C)C[C@H](O)[C@@H]1O

OUTPUT:
[1.4, 0.532, 1.02, 6.68, 5.43, 0.547, 6.06]

phenotypic distance reading for CC(C)(Oc1ccc(C2CC2(Cl)Cl)cc1)C(=O)O (centres undefined) [Ciprofibrate] : 0.655
